For each of the compounds below, state its melting point.
One number for each entry, in °C.

Examples with their reported melting point follow.
> print(dat)
                                   compound  numeric.readout
1                 CS(=O)(=O)Nc1cc(F)cc(F)c1              121
2  O=C(O)c1ncn2c1[C@@H]1CCCN1C(=O)c1cc(Cl)ccc1-2              227

Next compound, please.
Just so you know, measured melting point for CC(CN1CCCC1)Oc1ccccc1CC(=O)N1CC2C(C1)C(c1ccccc1)(c1ccccc1)CCS2=O (racemic) came out at 126

* * *

Experimental Readout: melting point

Examples with their reported melting point follow.
> print(dat)
                                   compound           result
1  COCC(COC)Oc1cc(Oc2ccc(S(C)(=O)=O)nc2)cc2cc(C3=NCC(CC(N)=O)S3)[nH]c12 (stereo unspecified)    172 to 173 °C
2            Cc1c(CCO)c(=O)oc2c(O)c(O)ccc12    221 to 222 °C
3  COc1ccc2ccccc2c1-c1c(C)c2c(c(C)c1P(=O)(c1ccccc1)c1ccccc1)CCC2  70.8 to 72.1 °C
4               Nc1nc(Cl)cc(NCC2(CO)CCC2)n1    192 to 194 °C
5  Fc1cccc(OC2CN(C3CCC(c4c[nH]c5ccccc45)CC3)C2)c1 (stereo unspecified)    114 to 117 °C

Next compound, please.
Just so you know, measured melting point for "NC(=O)C1(CCCNC=O)c2ccccc2-c2ccccc21" came out at 160 to 161 °C

* * *

Experimental Readout: melting point

List melting point for every entry below, keeping the order given.
1. CCCCCCOc1cccc(N2CC(=O)NC(=O)N2)c1
2. Nc1ncnc2c1ncn2C(c1ccccc1)(c1ccccc1)c1ccccc1
3. CCCCCn1c(C)cc(=O)c(C(=O)Nc2ccccc2)c1-c1ccccc1

[reply]
1. 161 to 163 °C
2. 260 to 262 °C
3. 164 to 166 °C

* * *

For each of the compounds below, state its melting point.
One number for each entry, in °C.

Examples with their reported melting point follow.
> print(dat)
                               entry.smiles  experimental.readout  numeric.readout
1  NS(=O)(=O)c1ccc(-c2cccc(-c3nc(-c4ccc(F)cc4)cc(C(F)(F)F)n3)c2)s1         melting point              228
2  Oc1ccc(CCC(CCc2ccc(O)cc2)(c2ccc(O)cc2)c2ccc(O)cc2)cc1         melting point              252
3      COc1ccccc1-c1cn([C@H]2CN3CCC2CC3)nn1         melting point              120

Next compound, please.
Just so you know, measured melting point for "O=C(NO)[C@H](CNS(=O)(=O)c1ccc(OCc2ccccc2)cc1)N1CCCC1" came out at 186

* * *

Experimental Readout: melting point

Examples with their reported melting point follow.
> print(dat)
                                   compound  experimental.readout         result
1  CN(Cc1ccc(Cl)c(Cl)c1)C(=O)C1=C(O)C(=O)N(CCC(=O)O)C1         melting point  183 to 184 °C
2  COc1cc(CCCCC2OC(=O)NC2=O)ccc1OCc1coc(/C=C/c2ccc3ccccc3c2)n1 (stereo not drawn)         melting point  169 to 170 °C
3  O=C(O)CCc1cn(Cc2ccc(OCc3csc(-c4ccccc4)n3)cc2)nc1-c1cccs1         melting point  133 to 134 °C
4             CCCC[C@H](CO)C(=O)NOCc1ccccc1         melting point  100 to 102 °C
5      CC(=O)CCc1nc2c(N)nc3ccccc3c2n1CC(C)C         melting point  172 to 174 °C
6  FC1=COC(COCc2ccccc2)C(COCc2ccccc2)O1 (stereo not drawn)         melting point  61.5 to 63 °C
7  CCn1nc(C(=O)OCc2ccccc2)cc(Nc2cnccc2C)c1=O         melting point  137 to 138 °C

Next compound, please.
Just so you know, measured melting point for Cc1cn([C@H]2C=C[C@@H](O)C2)c(=O)[nH]c1=O (racemic) came out at 191 to 192 °C
